Experiment: Drug concentration in blood of arachidonic acid-induced skin inflammation 129S2/SvPasCrl mouse model at 0.3 mg/kg, po measured after 4 hrs
Type: ADME, organism-based
Settings: read-out: Ct
MEASURE NAME: concentration at 4 h
Give your result as the value with the unit written after it.

q: Query: concentration at 4 h; subject: N[C@H](CO)Cn1ccc(-c2ccc(Oc3ncc(-c4cc[nH]n4)cc3F)cc2)n1
a: 108 nM

---

Experiment: Half life in Wistar rat at 1 mg/kg, iv measured upto 24 hrs by LC-MS/MS analysis
Type: ADME, organism-based
Conditions: in vivo
MEASURE NAME: half-life (h)
# unit: h | format: bare number

q: Request the reported half-life associated with N[C@H](CO)Cn1ccc(-c2ccc(Oc3ncc(-c4cc[nH]n4)cc3F)cc2)n1
a: 13

---

Biological target: UniProt Q12809
pIC50: −log10 of the molar value.
Listed here are molecules together with their documented pIC50.

>>> df
                                        smi  reading
0  N[C@H](CO)Cn1ccc(-c2ccc(Oc3ncc(-c4cc[nH]n4)cc3F)cc2)n1   < 4.52
1  N[C@H](CCO)Cn1nnc(-c2ccc(Oc3ncc(Cl)cc3F)cc2)n1   < 4.52
2       Cc1ccc(Oc2ccc(-c3nnn(CCN)n3)cc2)cc1     5.22
3  N[C@@H](CO)Cn1nnc(-c2ccc(Oc3ncc(Cl)cc3F)cc2)n1   < 4.52
4  N[C@H](CO)Cc1nc(-c2ccc(Oc3ccc(-c4cc[nH]n4)cn3)cc2)no1   < 4.52

q: Consider the molecule shown here: N[C@H](CO)Cn1nnc(-c2ccc(Oc3ncc(Cl)cc3F)cc2)n1 What is its recorded pIC50?
a: < 4.52

---

Assay: MRT in Wistar rat at 1 mg/kg, iv measured upto 24 hrs by LC-MS/MS analysis
Assay type: ADME, organism-based
Conditions: in vivo
MEASURE NAME: MRT (h)
Please state the figure in h; there is no need to write the unit.

q: What measured MRT goes with N[C@H](CO)Cn1ccc(-c2ccc(Oc3ncc(-c4cc[nH]n4)cc3F)cc2)n1 ?
a: 16

---

Assay: in vivo
Details: C57BL/6, mouse, blood, po, 10 mg/kg
MEASURE NAME: concentration at 24 h (nM)
Kindly answer with a numeric value in nM, unit omitted.

In [3]: df
Out[3]:
                                        smi  reading
0  N[C@H](CO)Cn1nnc(-c2ccc(Oc3ncc(Cl)cc3F)cc2)n1      134

Kindly consider the entry below.
q: I'd like to know its concentration at 24 h. The compound in question is N[C@H](CO)Cc1nc(-c2ccc(Oc3ccc(-c4cc[nH]n4)cn3)cc2)no1
a: 116

---

Listed here: items and their measured Vd.
Assay: in vivo
Settings: Sprague-Dawley, rat, iv, 1 mg/kg
Please respond with the number in L/kg and leave the unit unwritten.

>>> df
                                        smi  reading
0  N[C@H](CO)Cn1ccc(-c2ccc(Oc3ncc(-c4cc[nH]n4)cc3F)cc2)n1      5.5
1  N[C@@H](CO)Cn1nnc(-c2ccc(Oc3ncc(Cl)cc3F)cc2)n1       36
2  N[C@H](CO)Cc1nc(-c2ccc(Oc3ccc(-c4cc[nH]n4)cn3)cc2)no1       21

q: Can you look up the measured Vd of N[C@H](CO)Cn1nnc(-c2ccc(Oc3ncc(Cl)cc3F)cc2)n1 for me?
a: 3

---

Experiment: AUC (0 to infinity) in Wistar rat at 3 mg/kg, po measured upto 24 hrs by LC-MS/MS analysis
Format: ADME, organism-based
Set-up: time < 24 hrs, dose 3 mg/kg, route po
Settings: in vivo
MEASURE NAME: AUC(0-inf) (µM·h)
Express it in µM·h; write the number only.

q: Look up AUC(0-inf) for this compound: N[C@H](CO)Cn1ccc(-c2ccc(Oc3ncc(-c4cc[nH]n4)cc3F)cc2)n1
a: 4.99

---

Assay: in vivo
Details: Sprague-Dawley, rat, iv, 1 mg/kg
MEASURE NAME: bioavailability

q: Consider the molecule N[C@H](CO)Cc1nc(-c2ccc(Oc3ccc(-c4cc[nH]n4)cn3)cc2)no1 and give its measured bioavailability.
a: 49%

q: Given the molecule N[C@H](CO)Cn1ccc(-c2ccc(Oc3ncc(-c4cc[nH]n4)cc3F)cc2)n1 , what is its reported bioavailability?
a: 57%

q: Request the reported bioavailability associated with N[C@H](CO)Cn1nnc(-c2ccc(Oc3ncc(Cl)cc3F)cc2)n1
a: 100%

q: What bioavailability value was documented for this molecule, N[C@@H](CO)Cn1nnc(-c2ccc(Oc3ncc(Cl)cc3F)cc2)n1 ?
a: 37%

---

Assay: in vivo
Settings: Sprague-Dawley, rat, iv, 1 mg/kg
MEASURE NAME: clearance (mL/min/kg)
Only the number, expressed in mL/min/kg, is required.

q: Bench note: what clearance did N[C@H](CO)Cc1nc(-c2ccc(Oc3ccc(-c4cc[nH]n4)cn3)cc2)no1 show?
a: 16

q: Query: clearance; subject: N[C@H](CO)Cn1nnc(-c2ccc(Oc3ncc(Cl)cc3F)cc2)n1
a: 9

q: Entry under review: N[C@@H](CO)Cn1nnc(-c2ccc(Oc3ncc(Cl)cc3F)cc2)n1 . Reported clearance?
a: 134

q: Given N[C@H](CO)Cn1ccc(-c2ccc(Oc3ncc(-c4cc[nH]n4)cc3F)cc2)n1 , state its recorded clearance.
a: 20

---

Assay: in vivo
Conditions: Sprague-Dawley, rat, iv, 1 mg/kg
MEASURE NAME: concentration at 24 h (nM)
Number in nM, nothing else.

                                        smi  reading
0  N[C@@H](CO)Cn1nnc(-c2ccc(Oc3ncc(Cl)cc3F)cc2)n1        2
1  N[C@H](CO)Cn1nnc(-c2ccc(Oc3ncc(Cl)cc3F)cc2)n1       52
2  N[C@H](CO)Cc1nc(-c2ccc(Oc3ccc(-c4cc[nH]n4)cn3)cc2)no1       23

Continue with the next compound.
q: Given the entry N[C@H](CO)Cn1ccc(-c2ccc(Oc3ncc(-c4cc[nH]n4)cc3F)cc2)n1 , report its measured concentration at 24 h.
a: 32

---

Parameter IC50: see the listing below.
Biological target: Voltage-gated inwardly rectifying potassium channel KCNH2 (Homo sapiens, UniProt Q12809)
Sequence (Q12809 whole entry): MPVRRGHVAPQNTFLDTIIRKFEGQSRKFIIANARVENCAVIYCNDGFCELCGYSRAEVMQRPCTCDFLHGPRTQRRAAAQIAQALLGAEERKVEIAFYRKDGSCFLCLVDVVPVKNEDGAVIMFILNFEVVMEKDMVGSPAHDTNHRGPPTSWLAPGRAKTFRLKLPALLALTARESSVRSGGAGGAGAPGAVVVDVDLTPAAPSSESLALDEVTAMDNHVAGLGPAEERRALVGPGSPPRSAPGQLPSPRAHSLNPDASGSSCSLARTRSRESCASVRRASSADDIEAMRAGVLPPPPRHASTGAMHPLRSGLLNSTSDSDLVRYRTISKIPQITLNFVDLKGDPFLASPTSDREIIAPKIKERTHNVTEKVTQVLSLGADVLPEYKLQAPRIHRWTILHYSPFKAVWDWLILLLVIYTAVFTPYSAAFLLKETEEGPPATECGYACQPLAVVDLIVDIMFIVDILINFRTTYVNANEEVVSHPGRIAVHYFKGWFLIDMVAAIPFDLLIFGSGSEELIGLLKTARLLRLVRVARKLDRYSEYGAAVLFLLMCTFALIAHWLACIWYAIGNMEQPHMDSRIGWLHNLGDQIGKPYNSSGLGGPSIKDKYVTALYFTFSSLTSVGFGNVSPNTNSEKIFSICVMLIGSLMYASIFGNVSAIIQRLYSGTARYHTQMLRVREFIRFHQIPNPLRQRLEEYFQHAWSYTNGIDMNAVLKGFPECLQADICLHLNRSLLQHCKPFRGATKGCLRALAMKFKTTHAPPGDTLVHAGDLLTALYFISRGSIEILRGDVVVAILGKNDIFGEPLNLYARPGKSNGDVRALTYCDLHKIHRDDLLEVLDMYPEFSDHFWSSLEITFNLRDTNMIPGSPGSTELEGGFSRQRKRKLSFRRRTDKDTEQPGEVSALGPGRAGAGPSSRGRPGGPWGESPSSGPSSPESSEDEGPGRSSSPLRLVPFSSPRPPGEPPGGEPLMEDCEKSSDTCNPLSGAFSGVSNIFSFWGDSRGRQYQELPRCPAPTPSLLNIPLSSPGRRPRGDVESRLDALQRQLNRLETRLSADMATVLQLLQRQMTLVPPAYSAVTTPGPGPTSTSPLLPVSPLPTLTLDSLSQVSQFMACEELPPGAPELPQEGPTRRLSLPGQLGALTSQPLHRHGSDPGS

Worked cases, answers included:
In [3]: df
Out[3]:
                                        smi  measure_name  reading
0  N[C@H](CO)Cn1ccc(-c2ccc(Oc3ncc(-c4cc[nH]n4)cc3F)cc2)n1          IC50  > 30 µM
1  N[C@@H](CO)Cn1nnc(-c2ccc(Oc3ncc(Cl)cc3F)cc2)n1          IC50  > 30 µM
2  N[C@H](CO)Cn1nnc(-c2ccc(Oc3ncc(Cl)cc3F)cc2)n1          IC50    30 µM

Proceed to the following item.
q: Notebook: pull reported IC50 for Voltage-gated inwardly rectifying potassium channel KCNH2 (Homo sapiens, UniProt Q12809), entry N[C@H](CO)Cc1nc(-c2ccc(Oc3ccc(-c4cc[nH]n4)cn3)cc2)no1
a: > 30 µM

---

Assay: Oral bioavailability in dog at 3 mg/kg measured upto 24 hrs by LC-MS/MS analysis
Format: ADME, organism-based, Canis lupus familiaris
Conditions: in vivo
MEASURE NAME: bioavailability (%)
The answer is to be given in %; state only the numeric part.

q: State the recorded bioavailability for this entry: N[C@H](CO)Cn1ccc(-c2ccc(Oc3ncc(-c4cc[nH]n4)cc3F)cc2)n1
a: 39

---

Assay: Solubility of compound in FaSSIF at pH 6.8
Format: physicochemical
MEASURE NAME: solubility

q: Entry N[C@H](CO)Cn1ccc(-c2ccc(Oc3ncc(-c4cc[nH]n4)cc3F)cc2)n1 has what solubility?
a: > 2000 µg/mL

---

Listed here are molecules together with their documented MRT.
Assay: in vivo
Details: Sprague-Dawley, rat, iv, 1 mg/kg
Use h as the unit, but write only the number.

Illustrative cases are given below, each with its answer.
>>> df
                                        smi  measure_name  reading
0  N[C@H](CO)Cn1nnc(-c2ccc(Oc3ncc(Cl)cc3F)cc2)n1           MRT      5.3
1  N[C@H](CO)Cc1nc(-c2ccc(Oc3ccc(-c4cc[nH]n4)cn3)cc2)no1           MRT       23
2  N[C@H](CO)Cn1ccc(-c2ccc(Oc3ncc(-c4cc[nH]n4)cc3F)cc2)n1           MRT      4.6

Okay, now this molecule:
q: Given the entry N[C@@H](CO)Cn1nnc(-c2ccc(Oc3ncc(Cl)cc3F)cc2)n1 , report its measured MRT.
a: 4.5

Data provenance: ChEMBL document CHEMBL5375967
